measured.on: T1, human common cytokine receptor γ-chain (IL-2Rγ) (human, UniProt P31785 23-262, limits assumed)
T1 construct: Recombinant human IL-2Rγ protein, coated (ELISA) or amine-coupled to a CM5 chip (SPR); also called hu IL-2R; CD132
T1 sequence: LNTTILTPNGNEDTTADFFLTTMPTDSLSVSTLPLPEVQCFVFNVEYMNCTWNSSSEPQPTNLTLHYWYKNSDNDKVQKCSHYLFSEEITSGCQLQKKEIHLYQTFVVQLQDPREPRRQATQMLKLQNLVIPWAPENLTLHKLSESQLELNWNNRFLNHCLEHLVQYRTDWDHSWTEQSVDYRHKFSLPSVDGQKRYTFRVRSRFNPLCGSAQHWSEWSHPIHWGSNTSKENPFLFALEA
test.protocol: P.E. binding ELISA
observed.property: PE binding ELISA OD (OD450 nm)
Please state the figure in OD450 nm; there is no need to write the unit.

Reference set (3 entries):
Query: Need PE binding ELISA OD, item FJ1427_P035MP07A04 (VHH, tested as periplasmic extract; also called Clone nr) VHH: QVQLVESGGGLVQAGGSLRLSCAASGRTLSRYAMGWFRQGPGKEREFVAADSWGGDTYYDDSVEGRFTFSRDITKNAVYLQMNSLQPEDTAVYYCAAAPTSFATTAYSSSNSYAYWGQGTQVTVSS
Result: 0.507

Query: Need PE binding ELISA OD, item FJ1427_P035MP07A05 (VHH, tested as periplasmic extract; also called Clone nr) VHH: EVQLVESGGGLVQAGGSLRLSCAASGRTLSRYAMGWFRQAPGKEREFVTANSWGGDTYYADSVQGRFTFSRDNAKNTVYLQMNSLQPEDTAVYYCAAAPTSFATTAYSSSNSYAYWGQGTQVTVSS
Result: 0.973

Query: Need PE binding ELISA OD, item FJ1427_P035MP07F05 (VHH, tested as periplasmic extract; also called Clone nr) VHH: EVQLVESGGGLVQAGGSLRLSCAASGRTLSRYAMGWFRQAPGREREFVTANSWGGDTYYADSVQGRFTFSRDNAKNTVYLQMNSLQPEDTAVYYCAAAPTSFATTAYSSSNSYAYWGQGTQVTVSS
Result: 0.405

Next:
Query: Need PE binding ELISA OD, item FJ1427_P035MP07A10 (VHH, tested as periplasmic extract; also called Clone nr) VHH: QVQLVESGGGLVQAGGSLRLSCAASGRTLSRYAMGWFRQAPGSEREFVAASSWGGDTFYADSVEGRFTFSRDNAKNAVYLQMNSLQPEDTAAYYCAAAPTSFPTTAYSSSNSYAYWGQGTQVTVSS
Result: 0.759

Origin of the recorded values: patent US20240409645A1
